Measurement Target: HLA-B*27:05
Measurement Protocol: IEDB peptide-MHC binding, purified MHC/direct/fluorescence; filed as Kd, often an IC50 or EC50 that approximates it; bounds were set here for any values at or beyond the usual limits of such assays
Recorded Conditions: source organism: Brucella abortus
pKd: −log10 of the molar value.
Measured Parameter: pKd

In: Requested read-out: pKd. Entry: "EKPPVRPIF"
Out: ≤ 4.70

---

Measurement Target: HLA-A*02:03
Measurement Protocol: IEDB peptide-MHC binding, purified MHC/competitive/fluorescence; filed as Kd, often an IC50 or EC50 that approximates it; bounds were set here for any values at or beyond the usual limits of such assays
Recorded Conditions: source organism: Human immunodeficiency virus 1
Measured Parameter: Kd (nM)
Express the result in nM but write the number alone.

In: Requested read-out: Kd. Entry: "GLADQLIHI"
Out: 1.2

---

We begin with a simple list: items and their reported pKd.
Measurement Target: HLA-A*68:01
Measurement Protocol: IEDB peptide-MHC binding, purified MHC/competitive/radioactivity; filed as Kd, often an IC50 or EC50 that approximates it; bounds were set here for any values at or beyond the usual limits of such assays
Recorded Conditions: source organism: Vaccinia virus Copenhagen
Remember the convention: pKd equals -log10 of concentration in molar.

{"Primary Sequence": "KSVLDIISSK", "pKd": 6.57}
{"Primary Sequence": "STSPTRTWK", "pKd": 8.23}

Consider the additional sequence presented here.
In: Give pKd (HLA-A*68:01) of the following sequence: "FLIVSLCPT"
Out: 5.27

---

Measurement Target: HLA-A*24:02
Measurement Protocol: IEDB peptide-MHC binding, purified MHC/competitive/fluorescence; filed as Kd, often an IC50 or EC50 that approximates it; bounds were set here for any values at or beyond the usual limits of such assays
Recorded Conditions: source organism: Encephalitozoon cuniculi GB-M1
Measured Parameter: pKd
Remember the convention: pKd equals -log10 of concentration in molar.

In: Give pKd (HLA-A*24:02) of the following sequence: "TTLSIYFLL"
Out: 7.06

---

Measurement Target: HLA-A*03:01
Measurement Protocol: IEDB peptide-MHC binding, purified MHC/competitive/fluorescence; bounds were set here for any values at or beyond the usual limits of such assays
Recorded Conditions: source organism: Sudan ebolavirus
Measured Parameter: IC50 (nM)
Express the result in nM but write the number alone.

In: Requested read-out: IC50. Entry: "RTYTILNRK"
Out: 1050

---

Measurement Target: HLA-A*02:11
Measurement Protocol: IEDB peptide-MHC binding, purified MHC/direct/fluorescence; filed as Kd, often an IC50 or EC50 that approximates it; bounds were set here for any values at or beyond the usual limits of such assays
Recorded Conditions: source organism: Salmonella enterica subsp. enterica serovar Virchow
pKd: −log10 of the molar value.
Measured Parameter: pKd

In: Requested read-out: pKd. Entry: "CTWPEASRY"
Out: ≤ 4.70

---

Measurement Target: HLA-C*07:02
Measurement Protocol: IEDB peptide-MHC binding, purified MHC/direct/fluorescence; filed as Kd, often an IC50 or EC50 that approximates it; bounds were set here for any values at or beyond the usual limits of such assays
Recorded Conditions: source organism: Salmonella enterica subsp. enterica serovar Paratyphi B str. SPB7
Measured Parameter: Kd (nM)
Express the result in nM but write the number alone.

In: Requested read-out: Kd. Entry: "SVFTGLLPF"
Out: 507

Sourced from the Immune Epitope Database (IEDB)
